Parameter 'readout' = pIC50; parameter 'system' = HSP90 (Homo sapiens, UniProt P07900).
pIC50: −log10 of the molar value.

{"compound": "C[C@H](NC(=O)c1ccc(N2C3CCC2CC(NC(=O)c2ccc(C(N)=O)c(NCC4CC4)c2)C3)nc1)c1ccc(N2CCN(C)CC2)cc1 (stereo partly shown)", "pIC50": "> 6.30"}
{"compound": "CC[C@@H](C)Nc1cc(C(=O)NC2CC3CCC(C2)N3c2ccc(C(=O)C3CC3)cn2)c(C(F)(F)F)cc1C(N)=O (stereo partly shown)", "pIC50": "> 6.30"}
{"compound": "COc1cccc(C(=O)N[C@H]2C[C@H]3CC[C@@H](C2)N3c2ccc(C(N)=O)cn2)c1C", "pIC50": "6.00 to 6.30"}
{"compound": "COc1cccc(C(=O)N[C@H]2C[C@H]3CC[C@@H](C2)N3c2ccc(C(=O)NCc3ccc(N4CCCC4)cc3)cn2)c1C", "pIC50": "6.00 to 6.30"}
{"compound": "COc1cccc(C(=O)N[C@H]2C[C@H]3CC[C@@H](C2)N3c2ccc(C(=O)NCCN3CCCCC3)cn2)c1C", "pIC50": "5.70 to 6.00"}
{"compound": "COc1ccc([C@H](NC(=O)c2ccc(N3C4CCC3CC(NC(=O)c3cccc(OC)c3C)C4)nc2)C(N)=O)cc1 (stereo partly shown)", "pIC50": "6.00 to 6.30"}
{"compound": "CC(=O)c1ccc(N2[C@@H]3CC[C@H]2C[C@@H](NC(=O)c2ccc(C(N)=O)c(NC4CCCC4)c2)C3)nc1", "pIC50": "> 6.30"}

----------
Parameter 'readout' = pIC50; parameter 'system' = HSP90 (Homo sapiens).
pIC50: −log10 of the molar value.

{"compound": "CCCNC(=O)c1ccc(N2[C@@H]3CC[C@H]2C[C@@H](NC(=O)c2cccc(OC)c2C)C3)nc1", "pIC50": "5.70 to 6.00"}
{"compound": "NC(=O)c1ccc(C(=O)N[C@H]2C[C@H]3CC[C@@H](C2)N3c2ccc(C(=O)C3CCC3)cn2)cc1NCC1CC1", "pIC50": "5.70 to 6.00"}
{"compound": "COc1cccc(C(=O)NC2CC3CCC(C2)N3c2ccc(C(=O)NC(C)c3ccc(C4CCNCC4)cc3F)cn2)c1C (centres unmarked)", "pIC50": "> 6.30"}
{"compound": "CCOCCCNC(=O)c1ccc(N2[C@@H]3CC[C@H]2C[C@@H](NC(=O)c2cccc(OC)c2C)C3)nc1", "pIC50": "5.70 to 6.00"}
{"compound": "COc1cccc(C(=O)N[C@H]2C[C@H]3CC[C@@H](C2)N3c2ccc(C(=O)NC3CC3)cn2)c1C", "pIC50": "5.70 to 6.00"}
{"compound": "Cc1c(OC(N)=O)cccc1C(=O)N[C@H]1C[C@H]2CC[C@@H](C1)N2c1ccc(C(=O)NCc2ccccc2)cn1", "pIC50": "5.00 to 5.70"}
{"compound": "CCC(CC)Nc1cc(C(=O)NC2CC3CCC(C2)N3c2ccc(C(=O)N[C@@H]3CCNC3)cn2)ccc1C(N)=O (some centres unmarked)", "pIC50": "> 6.30"}
{"compound": "COc1cccc(C(=O)N[C@H]2C[C@H]3CC[C@@H](C2)N3c2ccc(C(=O)NCc3cccc(F)c3)cn2)c1C", "pIC50": "5.70 to 6.00"}

----------
target: HSP90 (Homo sapiens, UniProt P07900)
value type: IC50

{"compound": "COc1cccc(C(=O)N[C@H]2C[C@H]3CC[C@@H](C2)N3c2ccc(C(=O)NCc3c(F)cccc3Cl)cn2)c1C", "assayed target": "HSP90 (Homo sapiens, UniProt P07900)", "value type": "IC50", "test result": "< 500 nM"}
{"compound": "CC[C@H](C)Nc1cc(C(=O)NC2CC3CCC(C2)N3c2ccc(C(C)=O)cn2)ccc1C(N)=O (stereo partly shown)", "assayed target": "HSP90 (Homo sapiens, UniProt P07900)", "value type": "IC50", "test result": "< 500 nM"}
{"compound": "COc1cccc(C(=O)NC2CC3CCC(C2)N3c2ccc(C(=O)NCCC3CCCN3C)cn2)c1C (stereo not shown)", "assayed target": "HSP90 (Homo sapiens, UniProt P07900)", "value type": "IC50", "test result": "500 to 999 nM"}
{"compound": "CCN(CC)CCOc1ccc([C@H](C)NC(=O)c2ccc(N3C4CCC3CC(NC(=O)c3cccc(OC)c3C)C4)nc2)c(F)c1 (stereo partly shown)", "assayed target": "HSP90 (Homo sapiens, UniProt P07900)", "value type": "IC50", "test result": "< 500 nM"}

----------
pIC50: −log10 of the molar value.
Parameter 'readout' = pIC50; parameter 'system' = HSP90 (Homo sapiens, UniProt P07900).
value type: pIC50

{"compound": "CCOC(=O)N1CCC(NC(=O)c2ccc(N3[C@@H]4CC[C@H]3C[C@@H](NC(=O)c3cccc(OC)c3C)C4)nc2)CC1", "assayed target": "HSP90 (Homo sapiens, UniProt P07900)", "value type": "pIC50", "test result": "> 6.30"}
{"compound": "Cc1cc(C(N)=O)c(N[C@H]2CCOC2)cc1C(=O)NC1CC2CCC(C1)N2c1ccc(C(=O)C2CC2)cn1 (stereo partly shown)", "assayed target": "HSP90 (Homo sapiens, UniProt P07900)", "value type": "pIC50", "test result": "> 6.30"}
{"compound": "CCN(CC)CCNC(=O)c1ccc(N2[C@@H]3CC[C@H]2C[C@@H](NC(=O)c2cccc(OC)c2C)C3)nc1", "assayed target": "HSP90 (Homo sapiens, UniProt P07900)", "value type": "pIC50", "test result": "6.00 to 6.30"}
{"compound": "CC(C)(C)Nc1cc(C(=O)N[C@H]2C[C@H]3CC[C@@H](C2)N3c2ccc(C(=O)C3CC3)cn2)c(Br)cc1C(N)=O", "assayed target": "HSP90 (Homo sapiens, UniProt P07900)", "value type": "pIC50", "test result": "> 6.30"}
{"compound": "NC(=O)c1cc(Br)c(C(=O)N[C@H]2C[C@H]3CC[C@@H](C2)N3c2ccc(C(=O)C3CC3)cn2)cc1N", "assayed target": "HSP90 (Homo sapiens, UniProt P07900)", "value type": "pIC50", "test result": "> 6.30"}
{"compound": "Cc1cc(C(N)=O)c(NC(C2CC2)C2CC2)cc1C(=O)NC1CC2CCC(C1)N2c1ccc(C(=O)C2CC2)cn1 (stereo not shown)", "assayed target": "HSP90 (Homo sapiens, UniProt P07900)", "value type": "pIC50", "test result": "> 6.30"}
{"compound": "COc1ccc(C(=O)N[C@H]2C[C@H]3CC[C@@H](C2)N3c2ccc(C(=O)NCc3ccccc3)cn2)c(C)c1OC", "assayed target": "HSP90 (Homo sapiens, UniProt P07900)", "value type": "pIC50", "test result": "5.00 to 5.70"}

----------
Parameter 'readout' = IC50; parameter 'system' = HSP90 (Homo sapiens, UniProt P07900).
value type: IC50

{"molecule": "CC(=O)c1ccc(N2[C@@H]3CC[C@H]2C[C@@H](NC(=O)c2ccc(C(N)=O)c(NCC4CC4)c2)C3)nc1", "test result": "< 500 nM"}
{"molecule": "COc1cc(CNC(=O)c2ccc(N3[C@@H]4CC[C@H]3C[C@@H](NC(=O)c3cccc(OC)c3C)C4)nc2)cc(OC)c1", "test result": "1000 to 2000 nM"}
{"molecule": "COc1cccc(C(=O)N[C@H]2C[C@H]3CC[C@@H](C2)N3c2ccc(C(=O)NCC3CC3)cn2)c1C", "test result": "500 to 999 nM"}
{"molecule": "COc1cccc(C(=O)N[C@H]2C[C@H]3CC[C@@H](C2)N3c2ccc(C(=O)NCc3ccc(F)c(F)c3)cn2)c1C", "test result": "< 500 nM"}
{"molecule": "CC(=O)c1ccc(N2[C@@H]3CC[C@H]2C[C@@H](NC(=O)c2ccc(C(N)=O)c(NCc4ccccc4)c2)C3)nc1", "test result": "500 to 999 nM"}
{"molecule": "CCC(CC)Nc1cc(C(=O)N[C@H]2C[C@H]3CC[C@@H](C2)N3c2ccc(C(=O)C3CC3)cn2)ccc1C(N)=O", "test result": "< 500 nM"}
{"molecule": "COc1cccc(C(=O)NC2CC3CCC(C2)N3c2ccc(C(=O)N[C@@H]3CCN(Cc4ccccc4)C3)cn2)c1C (stereo partly shown)", "test result": "< 500 nM"}
{"molecule": "Cc1cccc(C(=O)N[C@H]2C[C@H]3CC[C@@H](C2)N3c2ccc(C(=O)NCc3ccccc3)cn2)c1C", "test result": "2000 to 10000 nM"}
{"molecule": "COc1cccc(C(=O)N[C@H]2C[C@H]3CC[C@@H](C2)N3c2ccc(C(=O)NO)cn2)c1C", "test result": "2000 to 10000 nM"}
{"molecule": "CC(Nc1c(C(N)=O)ccc(C(=O)N[C@H]2C[C@H]3CC[C@@H](C2)N3c2ccc(C(=O)C3CC3)cn2)c1Cl)C1CC1 (stereo partly shown)", "test result": "< 500 nM"}
{"molecule": "CCC(C)Oc1cc(C(=O)N[C@H]2C[C@H]3CC[C@@H](C2)N3c2ccc(C(=O)C3CC3)cn2)c(C)cc1C(N)=O (stereo partly shown)", "test result": "< 500 nM"}
{"molecule": "COc1ccccc1CNC(=O)c1ccc(N2[C@@H]3CC[C@H]2C[C@@H](NC(=O)c2cccc(OC)c2C)C3)nc1", "test result": "1000 to 2000 nM"}
{"molecule": "CCC(CC)Nc1cc(C(=O)NC2CC3CCC(C2)N3c2ccc(C(=O)NCC3CCCN3CC)cn2)c(C)cc1C(N)=O (stereo not shown)", "test result": "< 500 nM"}
{"molecule": "Cc1cc(C(=O)N[C@H]2C[C@H]3CC[C@@H](C2)N3c2ccc(C(N)=O)cn2)c(C)cc1C(N)=O", "test result": "< 500 nM"}
{"molecule": "Cc1cc(C(=O)NC2CC3CCC(C2)N3c2ccc(C(=O)N[C@@H](C)c3ccc(N4CCN(C)CC4)cc3)cn2)c(C)cc1C(N)=O (stereo partly shown)", "test result": "< 500 nM"}
{"molecule": "CCC(CC)Nc1cc(C(=O)N[C@H]2C[C@H]3CC[C@@H](C2)N3c2ccc(C(C)=O)cn2)ccc1C(N)=O", "test result": "< 500 nM"}

Provenance of the data: patent US8012956B2
